The measured values listed here are drawn from ChEMBL document CHEMBL1155882.

- measurementTarget: Ectonucleoside triphosphate diphosphohydrolase 3 (Homo sapiens)
- Sequence (whole entry): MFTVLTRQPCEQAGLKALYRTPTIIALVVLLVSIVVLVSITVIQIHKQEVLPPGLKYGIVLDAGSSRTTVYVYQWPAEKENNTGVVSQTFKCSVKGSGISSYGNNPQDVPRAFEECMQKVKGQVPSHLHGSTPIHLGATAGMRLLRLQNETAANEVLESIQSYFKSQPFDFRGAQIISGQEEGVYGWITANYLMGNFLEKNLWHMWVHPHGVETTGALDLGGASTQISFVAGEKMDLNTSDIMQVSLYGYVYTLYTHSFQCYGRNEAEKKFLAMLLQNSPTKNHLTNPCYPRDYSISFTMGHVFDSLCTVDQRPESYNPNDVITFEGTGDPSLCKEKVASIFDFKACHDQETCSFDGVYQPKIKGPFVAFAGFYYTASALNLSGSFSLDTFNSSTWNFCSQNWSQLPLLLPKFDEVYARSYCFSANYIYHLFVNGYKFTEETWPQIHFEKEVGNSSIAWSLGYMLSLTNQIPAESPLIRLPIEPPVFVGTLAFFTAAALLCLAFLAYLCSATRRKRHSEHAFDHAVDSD
- testName: Inhibition of human NTPDase 3 expressed in COS7 cells at 1mM
- Type: cell-based
- conditionParameters: COS-7

{"querySmiles": "CCOP(=O)(CNC(=O)CNC(=O)[C@H]1O[C@@H](n2cnc3c(N)ncnc32)[C@H](O)[C@@H]1O)OCC", "inhibition / %": 25}
{"querySmiles": "CCOP(=O)(CCNC(=O)CNC(=O)[C@H]1O[C@@H](n2ccc(=O)[nH]c2=O)[C@H](O)[C@@H]1O)OCC", "inhibition / %": 22}
{"querySmiles": "CCOP(=O)(CNC(=O)CCNC(=O)[C@H]1O[C@@H](n2cnc3c(N)ncnc32)[C@H](O)[C@@H]1O)OCC", "inhibition / %": 0}
{"querySmiles": "CCOP(=O)(CNC(=O)CCCNC(=O)[C@H]1O[C@@H](n2cnc3c(N)ncnc32)[C@H](O)[C@@H]1O)OCC", "inhibition / %": 0}
{"querySmiles": "CCOP(=O)(Cc1ccc(NC(=O)CCCNC(=O)[C@H]2O[C@@H](n3ccc(=O)[nH]c3=O)[C@H](O)[C@@H]2O)cc1)OCC", "inhibition / %": 48}
{"querySmiles": "CCOP(=O)(CNC(=O)CCNC(=O)[C@H]1O[C@@H](n2ccc(=O)[nH]c2=O)[C@H](O)[C@@H]1O)OCC", "inhibition / %": 0}
{"querySmiles": "CCOP(=O)(Cc1ccc(NC(=O)CNC(=O)[C@H]2O[C@@H](n3ccc(=O)[nH]c3=O)[C@H](O)[C@@H]2O)cc1)OCC", "inhibition / %": 0}
